Reference for the values: PubChem BioAssay AID588466

# TARGET: Desmoglein-3 (Homo sapiens)
# ASSAY SUMMARY: inhibitors of anti-DSG3 scFv binding to DSG3, confirmation, biochemical, cherry pick 1, bead-based, flow cytometry (AID 588466);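 note: 100% = 2% DMSO vehicle and 0% = excess soluble DSG3 blocking control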
# CONDITION CONTEXT: Protein G beads with DSG3, scFv-GFP binding, at 10 µM, hits give low values
About 30 (1%) of roughly 2,100 compounds were called active. A selection follows.

| COMPOUND | binding response (% of DMSO) / % |
| --- | --- |
| O=C(CSc1n[nH]c(-c2ccco2)n1)Nc1ccccc1Cl | 101 |
| CCOc1ccc2nc(NC(=O)c3ccc(S(=O)(=O)N4CCOCC4)cc3)sc2c1 | 77.7 |
| Cc1ccc(NC(=O)CN2C(=O)NC(Cc3c[nH]c4ccccc34)C2=O)cc1S(=O)(=O)N1CCCCC1 (centres undefined) | 102 |
| CCc1nnc(NC(=O)CCC(=O)NCc2ccccc2Cl)s1 | 97.5 |

###

# TARGET: Desmoglein-3 (Homo sapiens) (UniProt P32926)
# Sequence (P32926 whole entry, looked up): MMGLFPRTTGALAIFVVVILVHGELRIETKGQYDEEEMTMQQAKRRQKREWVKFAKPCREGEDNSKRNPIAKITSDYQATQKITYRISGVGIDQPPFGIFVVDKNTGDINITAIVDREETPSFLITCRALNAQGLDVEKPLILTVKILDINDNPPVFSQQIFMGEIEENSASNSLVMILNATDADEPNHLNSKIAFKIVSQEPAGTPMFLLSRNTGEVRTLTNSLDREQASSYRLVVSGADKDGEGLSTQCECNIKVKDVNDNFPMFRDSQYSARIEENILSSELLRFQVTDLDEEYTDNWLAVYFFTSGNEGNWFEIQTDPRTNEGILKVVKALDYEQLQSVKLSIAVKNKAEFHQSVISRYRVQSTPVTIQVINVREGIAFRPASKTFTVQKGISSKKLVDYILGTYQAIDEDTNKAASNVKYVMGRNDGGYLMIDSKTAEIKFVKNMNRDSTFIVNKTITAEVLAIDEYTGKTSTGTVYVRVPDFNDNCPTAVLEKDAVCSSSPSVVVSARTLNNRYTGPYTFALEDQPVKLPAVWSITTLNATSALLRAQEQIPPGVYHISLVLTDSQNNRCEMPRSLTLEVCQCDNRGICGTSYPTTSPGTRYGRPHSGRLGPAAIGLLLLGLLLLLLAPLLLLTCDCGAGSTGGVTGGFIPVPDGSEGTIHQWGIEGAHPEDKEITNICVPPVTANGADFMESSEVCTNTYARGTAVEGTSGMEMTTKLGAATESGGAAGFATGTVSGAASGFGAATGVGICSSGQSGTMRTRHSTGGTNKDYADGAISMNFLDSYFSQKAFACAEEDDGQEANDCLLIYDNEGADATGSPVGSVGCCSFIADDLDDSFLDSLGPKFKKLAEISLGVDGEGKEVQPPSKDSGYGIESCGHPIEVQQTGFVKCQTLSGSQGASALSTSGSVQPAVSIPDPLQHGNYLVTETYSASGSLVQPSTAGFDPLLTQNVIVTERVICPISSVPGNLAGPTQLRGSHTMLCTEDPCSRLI
# ASSAY SUMMARY: inhibitors of anti-DSG3 scFv binding to DSG3, confirmation, biochemical, cherry pick 1, bead-based, flow cytometry (AID 588466);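 note: 100% = 2% DMSO vehicle and 0% = excess soluble DSG3 blocking control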
# CONDITION CONTEXT: Protein G beads with DSG3, scFv-GFP binding, at 10 µM, hits give low values
The campaign covered roughly 2,100 compounds. About 30 (1%) were called active. Only a sample is shown.

| COMPOUND | binding response (% of DMSO), % |
| --- | --- |
| CCCOC(=O)CSc1nc(N)c(C#N)c(CC)c1C#N | 108 |
| O=c1c2nnn(Cc3ccc(Cl)cc3)c2ncn1Cc1ccc(F)cc1 | 93.7 |
| O=C(Nc1ccc(N2CCN(C(=O)c3ccccc3)CC2)cc1)c1cc2ccccc2o1 | 93.8 |
| COc1ccc(CNC(=O)C(C)n2nc(C)c3c(C)n(-c4ccccc4)nc3c2=O)c(OC)c1 (stereo unspecified) | 95.7 |
| Nc1cccc(C(=O)c2ccccc2C(=O)O)c1 | 98.2 |
| Cc1ccc(C)n1NC(=O)c1cccs1 | 91.4 |
| CCCCN(CCCC)C(=O)c1cc(Cl)ccc1[N+](=O)[O-] | 98.8 |
| COc1ccc(-c2cn3c(C)c(C(=O)NC(C)C)sc3n2)cc1 | 95.9 |
| CC(=O)Nc1ccc(S(=O)(=O)NCc2ccc3c(c2)cc(C)n3C)cc1 | 99.3 |
| NC(=O)CC(NC(=O)Cc1cccc2ccccc12)c1ccc(NCCOc2ccccc2)c([N+](=O)[O-])c1 (stereo unspecified) | 104 |
| C[C@H](CO)N1C[C@H](C)[C@@H](CN(C)Cc2ccc(-c3ccccc3)cc2)Oc2c(NS(=O)(=O)c3cn(C)cn3)cccc2C1=O | 98.2 |
| COc1ccc(S(=O)(=O)N2CCCCCC2)cc1NC(=O)CCNC(=O)c1ccc(Cl)cc1 | 107 |
| CCCCCC(=O)N1C[C@@H](O)[C@H](n2cc(-c3ccc(F)cc3)nn2)C[C@@H]1c1ccc(OC)cc1 | 99.7 |
| CCOC(=O)c1sc(NC(=O)C(CC)Sc2nccn2C)nc1C (stereo unspecified) | 105 |
| Cc1ccccc1NC(=O)Nc1nc2ccc(S(C)(=O)=O)cc2s1 | 89.9 |
| CSCC[C@H](NC(=O)C1CCN(S(=O)(=O)c2ccc(C)cc2)CC1)C(=O)NCc1ccco1 | 106 |
